# target: EGFR exon 20 ASV Ins V769_D770 (Ba/F3 cells) (Homo sapiens, UniProt P00533, INS769ASV)
# Construct: expressed in transfected cells; host or cells: Ba/F3 (murine pro-B cells), retroviral transduction, puromycin selection, IL3-independent pool
# Sequence (P00533 with tags, fused parts or gaps INS769ASV): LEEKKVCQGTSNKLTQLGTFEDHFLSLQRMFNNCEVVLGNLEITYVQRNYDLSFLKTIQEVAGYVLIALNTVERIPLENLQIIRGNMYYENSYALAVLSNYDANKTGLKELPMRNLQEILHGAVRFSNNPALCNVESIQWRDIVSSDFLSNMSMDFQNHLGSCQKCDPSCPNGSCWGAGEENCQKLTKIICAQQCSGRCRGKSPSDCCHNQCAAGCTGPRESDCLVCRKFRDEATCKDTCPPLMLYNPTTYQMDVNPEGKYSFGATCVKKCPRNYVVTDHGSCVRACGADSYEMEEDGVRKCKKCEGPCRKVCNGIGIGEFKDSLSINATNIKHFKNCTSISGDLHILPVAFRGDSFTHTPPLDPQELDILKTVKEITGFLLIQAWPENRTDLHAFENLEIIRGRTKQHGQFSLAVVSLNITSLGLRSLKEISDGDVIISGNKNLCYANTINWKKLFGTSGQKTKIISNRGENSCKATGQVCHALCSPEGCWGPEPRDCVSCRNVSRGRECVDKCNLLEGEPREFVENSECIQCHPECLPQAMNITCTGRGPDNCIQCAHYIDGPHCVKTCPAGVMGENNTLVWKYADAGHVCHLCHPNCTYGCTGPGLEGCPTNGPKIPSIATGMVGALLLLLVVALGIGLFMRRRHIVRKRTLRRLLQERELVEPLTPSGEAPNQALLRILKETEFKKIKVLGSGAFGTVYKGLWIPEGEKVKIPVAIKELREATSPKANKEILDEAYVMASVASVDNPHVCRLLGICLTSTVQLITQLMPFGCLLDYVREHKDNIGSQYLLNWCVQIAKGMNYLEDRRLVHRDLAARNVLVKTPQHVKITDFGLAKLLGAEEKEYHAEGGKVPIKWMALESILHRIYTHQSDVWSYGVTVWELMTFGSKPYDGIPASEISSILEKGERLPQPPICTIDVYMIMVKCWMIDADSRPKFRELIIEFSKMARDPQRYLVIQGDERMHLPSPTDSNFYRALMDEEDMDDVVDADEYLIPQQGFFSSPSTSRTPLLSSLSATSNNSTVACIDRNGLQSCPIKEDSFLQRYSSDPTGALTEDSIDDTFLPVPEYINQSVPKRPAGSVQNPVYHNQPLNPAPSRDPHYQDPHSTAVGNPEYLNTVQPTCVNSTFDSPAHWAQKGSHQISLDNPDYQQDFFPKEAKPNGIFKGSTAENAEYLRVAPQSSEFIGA
# protocol.details: Inhibitor activity on EGFR phosphorylation (pEGFR AlphaLISA, 2 h), Ba/F3 EGFR exon 20 ASV Ins
# Assay type: cell-based
pIC50: −log10 of the molar value.
value.type: pIC50

Memo: Nc1nccc(-c2[nH]c3c(c2Nc2cccc(Cl)c2F)C(=O)NCC3)n1 , reported pIC50: > 7.00

====

# target: EGFR exon 20 ASV Ins V769_D770 (Ba/F3 cells) (Homo sapiens, UniProt P00533, INS769ASV)
# Construct: expressed in transfected cells; host or cells: Ba/F3 (murine pro-B cells), retroviral transduction, puromycin selection, IL3-independent pool
# protocol.details: Inhibitor activity on EGFR-dependent cell growth (CellTiter-Glo, 72 h), Ba/F3 EGFR exon 20 ASV Ins
# Format: cell-based
# particulars: read-out: BaF3 ASV IC50
Form field: IC50 (one value per entry).

C=CC(=O)N1CCC2(CC1)CNC(=O)c1c2[nH]c(-c2ccnc(C)n2)c1Nc1cccc(Cl)c1OC [compound 643]; < 100 nM
COc1c(F)cccc1Nc1c(-c2nnc3ccccn23)[nH]c2c1C(=O)NCC2 [compound 239]; > 1000 nM
COc1c(Cl)cccc1Nc1c(-c2ccnc(Nc3cnoc3C)n2)[nH]c2c1C(=O)NCC2 [compound 510]; < 100 nM
C=CC(=O)N1CCC2(CC1)CNC(=O)c1c2[nH]c(-c2ccncc2F)c1Nc1cccc(Cl)c1Cl [Compound 589]; < 100 nM
COc1c(F)cccc1Nc1c(-c2ccncn2)[nH]c2c1C(=O)NC[C@H]2C[C@@H]1COCCO1 [Compound 569]; < 100 nM

Could you now look at the following compound, please?
Memo: COc1nccc(-c2[nH]c3c(c2Nc2cccc(Cl)c2OC)C(=O)NCC3)n1 [compound 286] , reported IC50: > 1000 nM

====

Form field: IC50 (one value per entry).
# target: EGFR exon 20 SVD Ins D770_N771 (Ba/F3 cells) (Homo sapiens, UniProt P00533, INS770SVD)
# Construct: expressed in transfected cells; host or cells: Ba/F3 (murine pro-B cells), retroviral transduction, puromycin selection, IL3-independent pool
# Sequence (P00533 with tags, fused parts or gaps INS770SVD): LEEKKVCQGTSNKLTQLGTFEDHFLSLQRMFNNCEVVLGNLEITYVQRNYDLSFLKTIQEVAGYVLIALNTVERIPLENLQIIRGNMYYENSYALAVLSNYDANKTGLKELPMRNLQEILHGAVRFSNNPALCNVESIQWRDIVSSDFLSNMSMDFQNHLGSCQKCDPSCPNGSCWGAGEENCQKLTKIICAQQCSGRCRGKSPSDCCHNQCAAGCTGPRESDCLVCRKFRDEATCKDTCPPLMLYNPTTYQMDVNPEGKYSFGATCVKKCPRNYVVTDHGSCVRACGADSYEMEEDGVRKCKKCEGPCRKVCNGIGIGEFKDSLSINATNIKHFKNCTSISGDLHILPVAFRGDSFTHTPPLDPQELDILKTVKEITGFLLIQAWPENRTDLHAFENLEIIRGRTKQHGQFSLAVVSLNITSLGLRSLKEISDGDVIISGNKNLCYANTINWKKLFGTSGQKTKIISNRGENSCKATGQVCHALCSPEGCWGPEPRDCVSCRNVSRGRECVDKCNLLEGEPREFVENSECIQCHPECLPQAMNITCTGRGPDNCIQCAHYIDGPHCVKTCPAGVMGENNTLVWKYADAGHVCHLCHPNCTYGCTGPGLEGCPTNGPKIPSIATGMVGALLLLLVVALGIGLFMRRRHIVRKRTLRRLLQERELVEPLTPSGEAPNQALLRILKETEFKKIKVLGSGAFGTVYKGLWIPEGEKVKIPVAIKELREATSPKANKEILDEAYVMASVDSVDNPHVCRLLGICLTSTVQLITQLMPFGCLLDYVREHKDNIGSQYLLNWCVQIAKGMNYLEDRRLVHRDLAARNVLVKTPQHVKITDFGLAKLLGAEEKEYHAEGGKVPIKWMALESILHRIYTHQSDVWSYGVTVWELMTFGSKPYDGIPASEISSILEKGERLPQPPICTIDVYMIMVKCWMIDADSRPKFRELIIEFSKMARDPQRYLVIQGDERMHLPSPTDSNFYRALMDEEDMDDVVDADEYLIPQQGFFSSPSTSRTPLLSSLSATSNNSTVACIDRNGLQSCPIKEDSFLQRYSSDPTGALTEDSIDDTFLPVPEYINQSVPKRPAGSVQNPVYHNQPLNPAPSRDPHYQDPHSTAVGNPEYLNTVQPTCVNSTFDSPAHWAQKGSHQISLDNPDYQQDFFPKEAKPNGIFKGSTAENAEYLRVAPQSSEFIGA
# protocol.details: Inhibitor activity on EGFR-dependent cell growth (CellTiter-Glo, 72 h), Ba/F3 EGFR exon 20 SVD Ins
# Assay type: cell-based
# particulars: read-out: BaF3 SVD IC50

COc1c(Cl)cccc1Nc1c(-c2ccncc2F)[nH]c2c1C(=O)NC[C@@]21CCOC1 (single isomer, unassigned); 100 to 1000 nM

Memo: COc1c(Cl)cccc1Nc1c(-c2ccnc(N)n2)[nH]c2c1C(=O)NC(CO)C2 (stereo not drawn) , reported IC50: 100 to 1000 nM

Memo: COc1c(F)cccc1Nc1c(-c2ccncc2F)[nH]c2c1C(=O)NC[C@@H]2C[C@@H]1COCCO1 , reported IC50: 100 to 1000 nM

====

# target: EGFR exon 20 ASV Ins V769_D770 (Ba/F3 cells) (Homo sapiens, UniProt P00533, INS769ASV)
# Construct: expressed in transfected cells; host or cells: Ba/F3 (murine pro-B cells), retroviral transduction, puromycin selection, IL3-independent pool
# protocol.details: Inhibitor activity on EGFR-dependent cell growth (CellTiter-Glo, 72 h), Ba/F3 EGFR exon 20 ASV Ins
# Type: cell-based
# particulars: read-out: BaF3 ASV IC50
pIC50: −log10 of the molar value.
Form field: pIC50 (one value per entry).

In the examples that follow, each entry is paired with its recorded pIC50.
COc1c(Cl)cccc1Nc1c(-c2ccncc2F)[nH]c2c1C(=O)NC[C@@H]2CC(F)F; 6.00 to 7.00
COc1c(F)cccc1Nc1c(-c2nnc3cc(C)ccn23)[nH]c2c1C(=O)NCC2; < 6.00
COc1c(Cl)cccc1Nc1c(-c2ccnc3ccc(OC4(C)CC4)nc23)[nH]c2c1C(=O)NC[C@@H]2C (single isomer, unassigned); > 7.00

Could you now look at the following compound, please?
Memo: COc1c(Cl)cccc1Nc1c(-c2ccnc(Nc3cnn(C)n3)n2)[nH]c2c1C(=O)NCC2 , reported pIC50: > 7.00

====

Form field: IC50 (one value per entry).
# target: EGFR exon 20 FQEA Ins A763_V764 (Ba/F3 cells) (Homo sapiens, UniProt P00533, INS763FQEA)
# Sequence (P00533 with tags, fused parts or gaps INS763FQEA): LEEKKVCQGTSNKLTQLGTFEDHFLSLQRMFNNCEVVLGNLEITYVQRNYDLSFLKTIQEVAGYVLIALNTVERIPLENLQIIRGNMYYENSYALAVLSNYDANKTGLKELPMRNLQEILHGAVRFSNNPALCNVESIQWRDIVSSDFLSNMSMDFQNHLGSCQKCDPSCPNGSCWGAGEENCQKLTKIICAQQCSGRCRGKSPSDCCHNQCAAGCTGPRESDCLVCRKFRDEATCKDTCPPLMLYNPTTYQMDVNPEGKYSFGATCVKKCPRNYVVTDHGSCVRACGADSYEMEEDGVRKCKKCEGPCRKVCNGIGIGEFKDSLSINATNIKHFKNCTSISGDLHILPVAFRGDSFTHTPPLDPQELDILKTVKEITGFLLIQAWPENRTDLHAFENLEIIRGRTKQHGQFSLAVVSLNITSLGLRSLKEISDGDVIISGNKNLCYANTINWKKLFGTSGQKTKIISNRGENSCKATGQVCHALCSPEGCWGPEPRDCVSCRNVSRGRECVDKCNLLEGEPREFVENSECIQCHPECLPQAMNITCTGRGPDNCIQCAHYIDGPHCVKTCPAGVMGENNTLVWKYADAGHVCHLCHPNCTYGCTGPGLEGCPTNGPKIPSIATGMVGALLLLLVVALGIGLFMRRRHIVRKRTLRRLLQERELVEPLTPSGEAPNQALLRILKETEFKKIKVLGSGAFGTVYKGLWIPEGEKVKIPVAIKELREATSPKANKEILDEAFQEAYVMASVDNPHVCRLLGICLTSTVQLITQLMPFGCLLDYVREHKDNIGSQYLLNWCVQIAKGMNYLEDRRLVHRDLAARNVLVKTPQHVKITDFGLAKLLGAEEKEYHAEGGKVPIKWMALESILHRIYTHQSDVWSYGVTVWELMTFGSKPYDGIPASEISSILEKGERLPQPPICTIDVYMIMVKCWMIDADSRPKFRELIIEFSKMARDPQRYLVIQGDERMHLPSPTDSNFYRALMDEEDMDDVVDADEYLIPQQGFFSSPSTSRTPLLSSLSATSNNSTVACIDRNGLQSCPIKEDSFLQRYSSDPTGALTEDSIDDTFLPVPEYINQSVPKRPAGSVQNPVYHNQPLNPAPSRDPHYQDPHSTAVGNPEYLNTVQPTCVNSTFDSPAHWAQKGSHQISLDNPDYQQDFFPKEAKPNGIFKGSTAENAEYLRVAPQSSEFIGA
# protocol.details: Inhibitor activity on EGFR-dependent cell growth (CellTiter-Glo, 72 h), Ba/F3 EGFR exon 20 FQEA Ins
# particulars: read-out: BaF3 FQEA IC50

In the examples that follow, each entry is paired with its recorded IC50.
COc1c(Cl)cccc1Nc1c(-c2ccncc2F)[nH]c2c1C(=O)NC[C@@H]2CCN1CCOCC1; > 1000 nM
COc1c(Cl)cccc1Nc1c(-c2ccnc3[nH]ccc23)[nH]c2c1C(=O)NCC2; 100 to 1000 nM

Memo: COc1c(F)cccc1Nc1c(-c2snc3cccnc23)[nH]c2c1C(=O)NCC2 , reported IC50: > 1000 nM

Memo: COc1c(Cl)cccc1Nc1c(-c2ccnc(NCCN(C)C)n2)[nH]c2c1C(=O)NCC2 , reported IC50: > 1000 nM

Memo: COc1c(Cl)cccc1Nc1c(-c2ccnc3ccc(C)nc23)[nH]c2c1C(=O)NCC2 , reported IC50: < 100 nM

Memo: C=CC[C@H]1CNC(=O)c2c1[nH]c(-c1ccncc1F)c2Nc1cccc(Cl)c1OC , reported IC50: > 1000 nM

Memo: COc1c(Cl)cccc1Nc1c(-c2ccnc(C)n2)[nH]c2c1C(=O)NC[C@H]2C[C@@H]1COCCO1 (single isomer, unassigned) , reported IC50: < 100 nM

Memo: COc1c(Cl)cccc1Nc1c(-c2ccnc3ccc(OC4CC4)nc23)[nH]c2c1C(=O)NCC2 , reported IC50: < 100 nM

Memo: C=CC(=O)N1CC[C@@]2(CNC(=O)c3c2[nH]c(-c2ccncc2F)c3Nc2cccc(Cl)c2OC)C1 , reported IC50: 100 to 1000 nM

Memo: COCC[C@@H]1CNC(=O)c2c1[nH]c(-c1ccncn1)c2Nc1cccc(Cl)c1OC [445a] , reported IC50: < 100 nM

Memo: COc1c(Cl)cccc1Nc1c(-c2ccnc(Nc3cnn(CC(F)F)c3)n2)[nH]c2c1C(=O)NCC2 , reported IC50: < 100 nM

Memo: COc1c(Cl)cccc1Nc1c(-c2ccnc(NC3CC(F)(F)C3)n2)[nH]c2c1C(=O)NCC2 , reported IC50: > 1000 nM

Memo: CCc1c(Cl)cccc1Nc1c(-c2ccnc3cnc(OC)nc23)[nH]c2c1C(=O)NCC2 , reported IC50: 100 to 1000 nM

Memo: COc1c(Cl)cccc1Nc1c(-c2ccnc(NCCF)n2)[nH]c2c1C(=O)NCC2 , reported IC50: 100 to 1000 nM

Memo: COc1nc2c(-c3[nH]c4c(c3Nc3cccc(Cl)c3OC)C(=O)NCC4)ccnc2cc1F , reported IC50: < 100 nM

Memo: COc1c(Cl)cccc1Nc1c(-c2ccncc2F)[nH]c2c1C(=O)NC[C@@]21CCN(S(C)(=O)=O)C1 , reported IC50: 100 to 1000 nM

Memo: COc1c(Cl)cccc1Nc1c(-c2ccnc3ccc(OCC4(F)CC4)nc23)[nH]c2c1C(=O)NCC2 , reported IC50: < 100 nM

Memo: COc1c(F)cc(F)cc1Nc1c(-c2ccnc(N)n2)[nH]c2c1C(=O)NCC2 , reported IC50: 100 to 1000 nM

Memo: COC[C@H]1CNC(=O)c2c1[nH]c(-c1ccnc3ccc(OC)nc13)c2Nc1cccc(Cl)c1OC , reported IC50: < 100 nM

Memo: C=CC(=O)N1CCC2(CC1)CNC(=O)c1c2[nH]c(-c2ccnc3ccc(OC)nc23)c1Nc1cccc(F)c1OC , reported IC50: < 100 nM

====

# target: EGFR WT (Ba/F3 cells) (Homo sapiens, UniProt P00533)
# Sequence (P00533 25-1210): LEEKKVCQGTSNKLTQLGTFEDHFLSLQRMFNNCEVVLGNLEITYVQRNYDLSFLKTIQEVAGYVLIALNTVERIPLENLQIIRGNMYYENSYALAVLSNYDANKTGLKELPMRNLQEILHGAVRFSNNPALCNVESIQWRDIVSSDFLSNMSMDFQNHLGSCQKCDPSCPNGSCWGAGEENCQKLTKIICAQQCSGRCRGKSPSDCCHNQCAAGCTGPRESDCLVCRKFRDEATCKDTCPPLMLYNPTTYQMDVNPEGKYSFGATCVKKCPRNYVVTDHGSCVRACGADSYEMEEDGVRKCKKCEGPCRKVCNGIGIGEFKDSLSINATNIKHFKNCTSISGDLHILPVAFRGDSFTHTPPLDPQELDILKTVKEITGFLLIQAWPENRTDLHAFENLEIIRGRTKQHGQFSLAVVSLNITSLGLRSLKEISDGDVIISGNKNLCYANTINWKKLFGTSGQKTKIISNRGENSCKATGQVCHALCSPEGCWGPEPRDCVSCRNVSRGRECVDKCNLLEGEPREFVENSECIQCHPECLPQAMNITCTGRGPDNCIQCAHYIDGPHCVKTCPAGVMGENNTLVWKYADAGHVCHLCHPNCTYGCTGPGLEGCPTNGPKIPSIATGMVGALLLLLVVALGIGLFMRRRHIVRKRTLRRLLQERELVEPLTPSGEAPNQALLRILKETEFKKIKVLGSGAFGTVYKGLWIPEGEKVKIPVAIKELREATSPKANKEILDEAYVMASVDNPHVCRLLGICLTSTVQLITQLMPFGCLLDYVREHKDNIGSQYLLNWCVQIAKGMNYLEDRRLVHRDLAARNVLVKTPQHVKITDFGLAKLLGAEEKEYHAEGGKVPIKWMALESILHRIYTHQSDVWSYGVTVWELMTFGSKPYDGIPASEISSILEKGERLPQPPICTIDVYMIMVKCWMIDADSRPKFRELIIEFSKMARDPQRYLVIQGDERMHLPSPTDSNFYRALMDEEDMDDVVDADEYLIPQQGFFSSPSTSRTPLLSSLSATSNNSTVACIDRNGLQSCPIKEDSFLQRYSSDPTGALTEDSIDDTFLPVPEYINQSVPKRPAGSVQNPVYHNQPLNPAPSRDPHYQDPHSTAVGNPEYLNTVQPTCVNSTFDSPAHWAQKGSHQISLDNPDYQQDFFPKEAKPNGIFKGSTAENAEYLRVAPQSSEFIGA
# protocol.details: Inhibitor activity on EGFR-dependent cell growth (CellTiter-Glo, 72 h), Ba/F3 EGFR WT
# particulars: read-out: BaF3 WT IC50
pIC50: −log10 of the molar value.
value.type: pIC50

COc1c(F)cccc1Nc1c(-c2ccnc(C)n2)[nH]c2c1C(=O)NCC2C[C@H]1COCCO1 (single isomer, unassigned) [Compound 606]; 6.00 to 7.00
COCC[C@@H]1CNC(=O)c2c1[nH]c(-c1ccnc(C)n1)c2Nc1cccc(Cl)c1OC [463a]; < 6.00
COc1c(F)cccc1Nc1c(-c2ccncn2)[nH]c2c1C(=O)NCC2; < 6.00
COc1c(F)cccc1Nc1c(-c2ccnc3ccc(OC4(C)COC4)nc23)[nH]c2c1C(=O)NCC2; > 7.00
COc1c(Cl)cccc1Nc1c(-c2ccnc(NC(=O)c3cccc(F)c3)n2)[nH]c2c1C(=O)NCC2; < 6.00
COc1c(Cl)cc(F)cc1Nc1c(-c2ccnc(C)n2)[nH]c2c1C(=O)NC[C@H]2C[C@@H]1COCCO1; < 6.00

Memo: C=CC(=O)N1CCC2(CC1)CNC(=O)c1c2[nH]c(-c2ccncc2F)c1Nc1cccc(Cl)c1Cl , reported pIC50: 6.00 to 7.00
